System: SUM149PT spheroids with HUVEC/MSC, viability
test summary: Anticancer human tumor SUM149PT cell line growth inhibition [GQUAD];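 also: spheroids exposed to drugs for seven days before readout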
setup conditions: curve of first compound; second compound 1 µM
pIC50: −log10 of the molar value.

| molecule | value modifier | pIC50 |
| --- | --- | --- |
| CCc1c2c(nc3ccc(O)cc13)-c1cc3c(c(=O)n1C2)COC(=O)[C@]3(O)CC + Cc1[nH]c2ccc(F)cc2c1-c1nc2c3cccnc3c3ncccc3c2[nH]1 | = | 8.64 |
| Nc1ccn(C2OC(CO)C(O)C2(F)F)c(=O)n1 (stereo unspecified) + CN(C)c1ccc(Nc2c3ccc(NC(=O)CCN4CCCC4)cc3nc3cc(NC(=O)CCN4CCCC4)ccc23)cc1 | = | 7.02 |
| C=CCn1c(=O)c2cnc(Nc3ccc(N4CCN(C)CC4)cc3)nc2n1-c1cccc(C(C)(C)O)n1 + CN(C)c1ccc(Nc2c3ccc(NC(=O)CCN4CCCC4)cc3nc3cc(NC(=O)CCN4CCCC4)ccc23)cc1 | = | 6.99 |
| Cc1[nH]c2ccccc2c1CCNCc1ccc(/C=C/C(=O)NO)cc1 + Cc1[nH]c2ccc(F)cc2c1-c1nc2c3cccnc3c3ncccc3c2[nH]1 | = | 6.52 |
| Cc1[nH]c2ccccc2c1CCNCc1ccc(/C=C/C(=O)NO)cc1 + Cc1cnc(CNC(=O)c2c(=O)c3ccc(N4CCCN(C)CC4)nc3n3c2sc2ccccc23)cn1 | > | 9.00 |
| COc1cc(C2c3cc4c(cc3C(OC3OC5COC(C)OC5C(O)C3O)C3COC(=O)C23)OCO4)cc(OC)c1O (stereo unspecified) + CN(C)c1ccc(Nc2c3ccc(NC(=O)CCN4CCCC4)cc3nc3cc(NC(=O)CCN4CCCC4)ccc23)cc1 | = | 6.14 |

###

System: SUM149PT spheroids with HUVEC/MSC, viability
test summary: Anticancer human tumor SUM149PT cell line growth inhibition [GQUAD];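 also: spheroids exposed to drugs for seven days before readout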;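 as to viability, T/C: percent viability relative to DMSO vehicle control taken as 100%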
setup conditions: second compound 1 µM; first compound 0.0316 µM; stronger effect = lower value
Each item that follows carries a reported viability, T/C.
endpoint label: viability, T/C (%)

| molecule | value |
| --- | --- |
| C=CCn1c(=O)c2cnc(Nc3ccc(N4CCN(C)CC4)cc3)nc2n1-c1cccc(C(C)(C)O)n1 + Cc1[nH]c2ccc(F)cc2c1-c1nc2c3cccnc3c3ncccc3c2[nH]1 | 85.8 |
| COc1ccc([C@@H](O)c2cc(-c3ncnc4cc(N5CCOCC5)ccc34)c(F)cc2Cl)nn1 + Cc1cnc(CNC(=O)c2c(=O)c3ccc(N4CCCN(C)CC4)nc3n3c2sc2ccccc23)cn1 | 43.4 |
| CCCS(=O)(=O)Nc1ccc(F)c(C(=O)c2c[nH]c3ncc(-c4ccc(Cl)cc4)cc23)c1F + Cc1cnc(CNC(=O)c2c(=O)c3ccc(N4CCCN(C)CC4)nc3n3c2sc2ccccc23)cn1 | 51.5 |

###

System: SUM149PT spheroids with HUVEC/MSC, viability
test summary: Anticancer human tumor SUM149PT cell line growth inhibition [GQUAD];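 also: spheroids exposed to drugs for seven days before readout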;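 as to viability, T/C: percent viability relative to DMSO vehicle control taken as 100%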
setup conditions: second compound 1 µM; first compound 0.0316 µM; stronger effect = lower value
Threshold-based label: viability, T/C under 40% gives Met, viability, T/C not under 40% gives Not met.

| compound | class name |
| --- | --- |
| CC(=O)O[C@H]1C(=O)[C@@]2(C)[C@H]([C@H](OC(=O)c3ccccc3)[C@]3(O)C[C@H](OC(=O)[C@H](O)[C@@H](NC(=O)c4ccccc4)c4ccccc4)C(C)=C1C3(C)C)[C@]1(OC(C)=O)CO[C@@H]1C[C@@H]2O + CN(C)c1ccc(Nc2c3ccc(NC(=O)CCN4CCCC4)cc3nc3cc(NC(=O)CCN4CCCC4)ccc23)cc1 | Met |
| O=C(NO)c1cnc(N2CCN(S(=O)(=O)c3ccc4ccccc4c3)CC2)nc1 + Cc1[nH]c2ccc(F)cc2c1-c1nc2c3cccnc3c3ncccc3c2[nH]1 | Not met |
| Nc1ccn(C2OC(CO)C(O)C2(F)F)c(=O)n1 (stereo not given) + Cc1[nH]c2ccc(F)cc2c1-c1nc2c3cccnc3c3ncccc3c2[nH]1 | Not met |

###

System: SUM149PT spheroids with HUVEC/MSC, viability
test summary: Anticancer human tumor SUM149PT cell line growth inhibition [GQUAD];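 also: spheroids exposed to drugs for seven days before readout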;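 as to viability, T/C: percent viability relative to DMSO vehicle control taken as 100%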
setup conditions: second compound 1 µM; first compound 0.0316 µM; stronger effect = lower value
endpoint label: viability, T/C (%)

| compound | test system | value |
| --- | --- | --- |
| O=c1[nH]cc(F)c(=O)[nH]1 + Cc1cnc(CNC(=O)c2c(=O)c3ccc(N4CCCN(C)CC4)nc3n3c2sc2ccccc23)cn1 | SUM149PT spheroids with HUVEC/MSC, viability | 43.4 |
| CC1COCCN1c1cc(C2(O)CC3CCC(C2)O3)c2cnn(-c3ccn[nH]3)c2n1 (stereo not given) + Cc1[nH]c2ccc(F)cc2c1-c1nc2c3cccnc3c3ncccc3c2[nH]1 | SUM149PT spheroids with HUVEC/MSC, viability | 81.8 |
| CC(=O)O[C@H]1C(=O)[C@@]2(C)[C@H]([C@H](OC(=O)c3ccccc3)[C@]3(O)C[C@H](OC(=O)[C@H](O)[C@@H](NC(=O)c4ccccc4)c4ccccc4)C(C)=C1C3(C)C)[C@]1(OC(C)=O)CO[C@@H]1C[C@@H]2O + Cc1cnc(CNC(=O)c2c(=O)c3ccc(N4CCCN(C)CC4)nc3n3c2sc2ccccc23)cn1 | SUM149PT spheroids with HUVEC/MSC, viability | 30.9 |
| Cc1cccc(N(C)C(=O)C2C(O)CCN2c2nc(C)cc(C(F)(F)F)c2C#N)c1 (stereo not given) + Cc1cnc(CNC(=O)c2c(=O)c3ccc(N4CCCN(C)CC4)nc3n3c2sc2ccccc23)cn1 | SUM149PT spheroids with HUVEC/MSC, viability | 45.5 |
| COc1ncnc(C2CC2)c1-c1ncc2cnn(Cc3ccc(-c4nc(C(F)(F)F)cn4C(C)C)cc3)c2n1 + Cc1[nH]c2ccc(F)cc2c1-c1nc2c3cccnc3c3ncccc3c2[nH]1 | SUM149PT spheroids with HUVEC/MSC, viability | 98.1 |

###

Tested on: SUM149PT spheroids with HUVEC/MSC, viability
test summary: Anticancer human tumor SUM149PT cell line growth inhibition [GQUAD];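 also: spheroids exposed to drugs for seven days before readout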;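 as to viability, T/C: percent viability relative to DMSO vehicle control taken as 100%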
setup conditions: second compound 0.1 µM; first compound 3.16 µM; stronger effect = lower value
Listed next: entries and their corresponding viability, T/C.

| molecule | result unit | viability, T/C |
| --- | --- | --- |
| CC1COCCN1c1cc(C2(S(C)(=N)=O)CC2)nc(-c2ccnc3[nH]ccc23)n1 (stereo not given) + Cc1cnc(CNC(=O)c2c(=O)c3ccc(N4CCCN(C)CC4)nc3n3c2sc2ccccc23)cn1 | % | 36 |
| COc1cc(C2c3cc4c(cc3C(OC3OC5COC(C)OC5C(O)C3O)C3COC(=O)C23)OCO4)cc(OC)c1O (stereo not given) + Cc1cnc(CNC(=O)c2c(=O)c3ccc(N4CCCN(C)CC4)nc3n3c2sc2ccccc23)cn1 | % | 24 |
| Cc1cccc(N(C)C(=O)C2C(O)CCN2c2nc(C)cc(C(F)(F)F)c2C#N)c1 (stereo not given) + CN(C)c1ccc(Nc2c3ccc(NC(=O)CCN4CCCC4)cc3nc3cc(NC(=O)CCN4CCCC4)ccc23)cc1 | % | 98.7 |
| O=C(c1cc(Cc2n[nH]c(=O)c3ccccc23)ccc1F)N1CCN(C(=O)C2CC2)CC1 + Cc1cnc(CNC(=O)c2c(=O)c3ccc(N4CCCN(C)CC4)nc3n3c2sc2ccccc23)cn1 | % | 61.4 |
| CC(=O)O[C@H]1C(=O)[C@@]2(C)[C@H]([C@H](OC(=O)c3ccccc3)[C@]3(O)C[C@H](OC(=O)[C@H](O)[C@@H](NC(=O)c4ccccc4)c4ccccc4)C(C)=C1C3(C)C)[C@]1(OC(C)=O)CO[C@@H]1C[C@@H]2O + Cc1cnc(CNC(=O)c2c(=O)c3ccc(N4CCCN(C)CC4)nc3n3c2sc2ccccc23)cn1 | % | 14.7 |

###

Test system: SUM149PT spheroids with HUVEC/MSC, viability
test summary: Anticancer human tumor SUM149PT cell line growth inhibition [GQUAD];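 also: spheroids exposed to drugs for seven days before readout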;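 as to viability, T/C: percent viability relative to DMSO vehicle control taken as 100%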
setup conditions: second compound 0.316 µM; first compound 0.00316 µM; stronger effect = lower value

| compound | viability, T/C (%) |
| --- | --- |
| Cn1ncnc1[C@H]1c2n[nH]c(=O)c3cc(F)cc(c23)N[C@@H]1c1ccc(F)cc1 + Cc1[nH]c2ccc(F)cc2c1-c1nc2c3cccnc3c3ncccc3c2[nH]1 | 90.3 |
| Cc1[nH]c2ccccc2c1CCNCc1ccc(/C=C/C(=O)NO)cc1 + Cc1cnc(CNC(=O)c2c(=O)c3ccc(N4CCCN(C)CC4)nc3n3c2sc2ccccc23)cn1 | 55.2 |
| CCc1c2c(nc3ccc(O)cc13)-c1cc3c(c(=O)n1C2)COC(=O)[C@]3(O)CC + Cc1[nH]c2ccc(F)cc2c1-c1nc2c3cccnc3c3ncccc3c2[nH]1 | 33.3 |
| Cn1ncnc1[C@H]1c2n[nH]c(=O)c3cc(F)cc(c23)N[C@@H]1c1ccc(F)cc1 + Cc1cnc(CNC(=O)c2c(=O)c3ccc(N4CCCN(C)CC4)nc3n3c2sc2ccccc23)cn1 | 53.4 |
| CC[C@@]1(O)C(=O)OCc2c1cc1n(c2=O)Cc2cc3c(CN(C)C)c(O)ccc3nc2-1 + Cc1cnc(CNC(=O)c2c(=O)c3ccc(N4CCCN(C)CC4)nc3n3c2sc2ccccc23)cn1 | 58.3 |
| Cn1ncnc1[C@H]1c2n[nH]c(=O)c3cc(F)cc(c23)N[C@@H]1c1ccc(F)cc1 + CN(C)c1ccc(Nc2c3ccc(NC(=O)CCN4CCCC4)cc3nc3cc(NC(=O)CCN4CCCC4)ccc23)cc1 | 83.4 |
| CCc1c2c(nc3ccc(O)cc13)-c1cc3c(c(=O)n1C2)COC(=O)[C@]3(O)CC + CN(C)c1ccc(Nc2c3ccc(NC(=O)CCN4CCCC4)cc3nc3cc(NC(=O)CCN4CCCC4)ccc23)cc1 | 45.7 |
